System: Staphylococcus aureus or Streptococcus species
MEASUREMENT NOTES: Murine Assay: in vivo antimicrobial activity, survival of mice infected intraperitoneally with bacteria
RECORDED CONDITIONS: Table 1; female mice; treatment 1 h and 5 h after infection, oral intubation or subcutaneous; survival over six days; probit analysis of mortality ratios; read-out: ED50

MOLECULE: CC(=O)NC[C@H]1CN(c2ccc(C3CCN(C=O)CC3)c(F)c2)C(=O)O1
REL: =
ED50 (mg/kg): 5

MOLECULE: CC(=O)NC[C@H]1CN(c2ccc(C3CCN(C(=O)c4cc5ccccc5[nH]4)CC3)c(F)c2)C(=O)O1
REL: >
ED50 (mg/kg): 20

MOLECULE: CC(=O)NC[C@H]1CN(c2ccc(C3CCN(C(=O)CO)CC3)cc2)C(=O)O1
REL: =
ED50 (mg/kg): 6.8

MOLECULE: CC(=O)NC[C@H]1CN(c2ccc(C3=CCN(C(=O)COC(C)=O)CC3)c(F)c2)C(=O)O1
REL: =
ED50 (mg/kg): 3

MOLECULE: CC(=O)NC[C@H]1CN(c2cc(F)c(C3CCN(C(=O)CO)CC3)c(F)c2)C(=O)O1
REL: =
ED50 (mg/kg): 8.7

MOLECULE: CC(=O)NC[C@H]1CN(c2ccc(C3CCN(C(=O)CO)CC3)c(F)c2)C(=O)O1
REL: =
ED50 (mg/kg): 2.3

MOLECULE: CC(=O)NC[C@H]1CN(c2ccc(C3CCN(CCF)CC3)c(F)c2)C(=O)O1
REL: =
ED50 (mg/kg): 15.3

MOLECULE: CC(=O)NC[C@H]1CN(c2ccc(C3CCN(C(=O)CO)C3)c(F)c2)C(=O)O1 (stereo partly drawn)
REL: =
ED50 (mg/kg): 5

MOLECULE: CC(=O)NC[C@H]1CN(c2ccc(C3CCN(C(=O)COCc4ccccc4)CC3)c(F)c2)C(=O)O1
REL: >
ED50 (mg/kg): 20

MOLECULE: CC(=O)NC[C@H]1CN(c2ccc(C3CCN(C(=O)c4ccno4)CC3)c(F)c2)C(=O)O1
REL: >
ED50 (mg/kg): 20

MOLECULE: O=C(NC[C@H]1CN(c2ccc(C3CCN(C(=O)CO)CC3)c(F)c2)C(=O)O1)C(Cl)Cl
REL: =
ED50 (mg/kg): 10.6

MOLECULE: CC(=O)NC[C@H]1CN(c2ccc(C3CCN(C(=O)COC(C)=O)CC3)c(F)c2)C(=O)O1
REL: =
ED50 (mg/kg): 6.3

Data provenance is patent US6358942B1.
